# System: 786-0
# assayProcedure: NCI tumour cell line growth inhibition, 48 h
Calls of active or inactive are those of the source. Cut-off read from the data, not from the text of the source: active = GI50 up to about 1.1 µM and inactive = higher.
Each record here notes measured GI50.

Below are worked cases with known answers.
CCOC(=O)C1(Cc2ccccc2)Cc2ccccc2C1=O (centres undefined)    32.5 µM (inactive)
Cc1cc(-c2ccc(C(=O)C(Cl)(Cl)Cl)[nH]2)on1    37 µM (inactive)
Cc1ccc(-c2c3nc(c(-c4ccc(C)cc4)c4ccc([nH]4)c(-c4ccc(OCC5COC(C)(C)O5)cc4)c4nc(c(-c5ccc(C)cc5)c5ccc2[nH]5)C=C4)C=C3)cc1 (centres undefined)    > 31.6 µM (inactive)
COC(=O)CSc1[nH]c2nc(C)nc(Nc3ccccc3)c2c1C#N    > 10 µM (inactive)
O=C(O)c1ccc(C=C2Sc3ccccc3S2)cc1    98.2 µM (inactive)
CC[C@@]1(OP(=O)(O)O)C(=O)OCc2c1cc1n(c2=O)Cc2cc3ccccc3nc2-1    0.0607 µM (active)
O=C(/C=C/c1ccc([N+](=O)[O-])cc1)c1ccc(NCc2nc3ccccc3[nH]2)cc1    3.13 µM (inactive)
COc1ccc2ccccc2c1CN1CCOCCOCCN(Cc2c(OC)ccc3ccccc23)CCOCCOCC1    31.8 µM (inactive)

Okay, next one:
The reported GI50 of the compound Nc1nncc2[nH]cnc12 was 48.3 µM (inactive)
